Some compounds, each annotated with its measured cell number.
# Tested on: TDF;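 also: TDF denotes transformed human dermal fibroblasts of mesenchymal origin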
# protocol-details: cell number relative to DMSO (% of DMSO); higher = more cells (less growth inhibition / toxicity)
# condition-details: concentration: 10 µM; 24 h
quantity-measured: cell number

{"columns": ["compound", "quantity-measured", "value-measured"],
 "data": [
  ["O=[N+]([O-])c1ncc[nH]1", "cell number", 92.6],
  ["C=C1C(C)C2C(Cc3ccccc3)NC(=O)C23C(OC(C)=O)C=CC(C)(O)C(=O)C(C)CC=CC3C1O (centres undefined)", "cell number", 45.1],
  ["Cc1ccc2c(c1)C1(CCN(CCc3nc(-c4ccccc4)oc3C)CC1)OC(=O)N2", "cell number", 91.1],
  ["C=CCN1CCC23CCCCC2C1Cc1ccc(O)cc13.O=C(O)C(O)C(O)C(=O)O (centres undefined) [Levallorphan tartrate]", "cell number", 118],
  ["CCCCCC(C=CC=CCC=CCC=CCCCC(=O)O)OO (centres undefined)", "cell number", 100],
  ["c1ccc2c3c([nH]c2c1)CNCC3", "cell number", 108],
  ["CC[NH+](CC)CC.Nc1ncnc2c1ncn2C1OC2COP([O-])(=S)OC2C1O (centres undefined)", "cell number", 113],
  ["Cl.NC(=O)c1ccc(OCC(O)CN2CC=C(c3ccc(F)cc3)CC2)cc1 (centres undefined)", "cell number", 107],
  ["O=c1cccc2n1CC1CNCC2C1 (single isomer, unassigned; (-)) [(-)-Cytisine]", "cell number", 85.2],
  ["Cl.Cl.NNCc1cccc(O)c1 [3-Hydroxybenzylhydrazine dihydrochloride]", "cell number", 48.9],
  ["CC(CCc1ccccc1)NC(C)C(O)c1ccc(O)cc1.Cl (centres undefined) [Nylidrin hydrochloride]", "cell number", 109],
  ["CCNC(=O)C[C@@H]1N=C(c2ccc(Cl)cc2)c2cc(OC)ccc2-n2c(C)nnc21", "cell number", 71.9],
  ["Br.CCCN(CCC)C1CCc2cccc(O)c2C1 (stereo not drawn) [R-(+)-8-Hydroxy-DPAT hydrobromide]", "cell number", 90.1],
  ["C#C[C@]1(O)CC[C@H]2[C@@H]3CC[C@H]4Cc5nc6nc7ccccc7n6cc5C[C@]4(C)[C@H]3CC[C@@]21C", "cell number", 88.1],
  ["Cl.N[C@@H](CCl)C(=O)O [beta-Chloro-L-alanine hydrochloride]", "cell number", 97.8],
  ["Cc1c(C(=O)Nc2cccc(C(F)(F)F)c2)cc(-c2ccccc2)n1CCCN1CCOCC1", "cell number", 94.3],
  ["CN1Cc2c(ccc3c2OCO3)C2C(O)Cc3cc4c(cc3C21)OCO4 (single isomer, unassigned; (+)) [(+)-Chelidonine]", "cell number", 7.56],
  ["COC1C=C2CCN(C)C2C2c3cc4c(cc3C(=O)OC12)OCO4.O=[N+]([O-])O (centres undefined) [Ungerine nitrate]", "cell number", 107],
  ["CCCC(=O)OCC[N+](C)(C)C", "cell number", 104],
  ["O=C(O)CCCc1ccc(N(CCCl)CCCl)cc1", "cell number", 85.1],
  ["CC(C)NP(=O)(NC(C)C)OP(=O)(NC(C)C)NC(C)C [Tetraisopropyl pyrophosphoramide]", "cell number", 104],
  ["CC1=CC2c3cccc4[nH]cc(c34)CC2N(C)C1 (centres undefined)", "cell number", 103],
  ["COc1ccccc1CN[C@H]1C2CCN(CC2)[C@H]1C(c1ccccc1)c1ccccc1", "cell number", 97.3],
  ["CCCCCN(C)CCC(O)(P(=O)([O-])O)P(=O)(O)O.[Na+]", "cell number", 105]
]}

Where do the numbers come from? From the supplement of paper PMC7156485.
